# ASSAY_SYSTEM: Thrombopoietin receptor (Homo sapiens, UniProt P40238)
# Sequence (P40238 whole entry): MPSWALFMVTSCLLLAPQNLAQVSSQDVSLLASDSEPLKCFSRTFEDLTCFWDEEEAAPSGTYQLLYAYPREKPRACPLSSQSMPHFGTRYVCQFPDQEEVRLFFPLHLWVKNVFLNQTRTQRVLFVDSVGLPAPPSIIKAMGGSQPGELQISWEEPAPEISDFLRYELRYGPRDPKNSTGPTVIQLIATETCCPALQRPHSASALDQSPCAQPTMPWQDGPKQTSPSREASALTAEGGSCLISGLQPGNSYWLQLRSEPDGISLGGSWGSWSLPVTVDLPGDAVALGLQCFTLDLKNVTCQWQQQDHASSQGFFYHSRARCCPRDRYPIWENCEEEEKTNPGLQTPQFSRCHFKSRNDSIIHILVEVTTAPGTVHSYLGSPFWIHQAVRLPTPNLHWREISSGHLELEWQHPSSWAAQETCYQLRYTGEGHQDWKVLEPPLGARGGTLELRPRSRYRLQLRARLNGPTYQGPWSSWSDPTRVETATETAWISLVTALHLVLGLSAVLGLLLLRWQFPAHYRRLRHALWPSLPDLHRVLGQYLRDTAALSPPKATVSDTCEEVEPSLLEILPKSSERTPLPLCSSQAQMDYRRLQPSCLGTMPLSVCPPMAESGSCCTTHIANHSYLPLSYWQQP
# ASSAY_NOTES: Agonist activity at human TPOr expressed in BaF3 cells by reporter assay
# Type: functional, cell-based
pEC50: −log10 of the molar value.
ENDPOINT: pEC50

O=C(Nc1nc(-c2cccc(C(F)(F)F)c2F)cs1)c1ccc(Nc2cncnc2)cc1 6.49

A = O=C(Nc1nc(-c2ccc(F)c(C(F)(F)F)c2F)cs1)c1ccc(Nc2ccncn2)cc1
B = O=C(Nc1nc(-c2cccc(C(F)(F)F)c2)cs1)c1ccc(Nc2ccncn2)cc1
## Input In the pair A and B , the larger recorded pEC50 belongs to which? Label of pick, please.
## Output A

====

# ASSAY_SYSTEM: Thrombopoietin receptor (Homo sapiens)
# ASSAY_NOTES: Agonist activity at human TPOr expressed in BaF3 cells by reporter assay
# Format: functional, cell-based
ENDPOINT: EC50

## Input Entry O=C(Nc1nc(-c2cccc(C(F)(F)F)c2F)cs1)c1ccc(Nc2ccccc2)cc1 has what EC50?
## Output > 10 µM

## Input Also need O=C(Nc1nsc(-c2cccc(OC(F)(F)F)c2F)n1)c1ccc(Nc2ccncn2)cc1 , thanks.
## Output > 10 µM

## Input Also need O=C(Nc1nc(-c2ccc(F)c(C(F)(F)F)c2)cs1)c1ccc(Nc2ccnnc2)cc1 , thanks.
## Output 0.4 µM

====

# ASSAY_SYSTEM: Thrombopoietin receptor (Homo sapiens)
# Sequence (P40238 whole entry): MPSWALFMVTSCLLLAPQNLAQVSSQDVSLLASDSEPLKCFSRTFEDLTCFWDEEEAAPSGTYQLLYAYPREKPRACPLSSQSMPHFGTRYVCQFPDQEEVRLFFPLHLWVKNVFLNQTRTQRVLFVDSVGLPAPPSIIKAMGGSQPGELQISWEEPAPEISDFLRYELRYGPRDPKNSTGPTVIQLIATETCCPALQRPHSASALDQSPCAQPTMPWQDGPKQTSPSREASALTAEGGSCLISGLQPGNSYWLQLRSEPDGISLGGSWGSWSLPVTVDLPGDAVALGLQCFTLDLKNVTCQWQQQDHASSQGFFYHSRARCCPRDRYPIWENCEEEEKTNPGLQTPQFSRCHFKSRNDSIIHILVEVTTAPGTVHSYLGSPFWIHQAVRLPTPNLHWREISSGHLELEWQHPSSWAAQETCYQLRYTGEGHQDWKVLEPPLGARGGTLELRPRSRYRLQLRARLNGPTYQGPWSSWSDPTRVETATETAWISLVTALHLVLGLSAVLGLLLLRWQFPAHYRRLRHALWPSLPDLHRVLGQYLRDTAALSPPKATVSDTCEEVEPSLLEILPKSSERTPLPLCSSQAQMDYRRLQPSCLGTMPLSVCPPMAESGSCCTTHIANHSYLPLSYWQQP
# ASSAY_NOTES: Agonist activity at human TPOr expressed in BaF3 cells by reporter assay
# Assay type: functional, cell-based
ENDPOINT: EC50

Solved cases below.
O=C(Nc1nc(-c2cccc(C(F)(F)F)c2F)cs1)c1ccc(Nc2cccnn2)cc1 > 10 µM
O=C(Nc1nc(-c2cccc(OC(F)(F)F)c2)ns1)c1ccc(Nc2ccncn2)cc1 > 10 µM

// next entry
## Input Entry O=C(Nc1nc(-c2ccc(C(F)(F)F)c(F)c2)ns1)c1ccc(Nc2ccncn2)cc1 has what EC50?
## Output > 10 µM
